EXPERIMENTAL SYSTEM: UniProt:Q9NWZ3
EXPERIMENT NOTES: IRAK4 kinase inhibition, Transcreener fluorescence polarization ADP assay
CONDITION LABEL: recombinant full-length His6-IRAK4; 125 uM ATP; 90 min; Ki computed using ATP Km 642 uM
OBSERVED PROPERTY: Ki (nM)

Known Ki results, listed for orientation:
CC1(C)Cc2cc(NC(=O)c3cnn4cccnc34)c(N3CCS(=O)(=O)CC3)cc2O1	84
C[C@@]1(CO)CCc2cc(NC(=O)c3cnn4cccnc34)c(N3CCOCC3)cc2O1 (single isomer, unassigned) [Example 433]	14
CC1(C)Cc2cc(NC(=O)c3cnn4cc(C#N)cnc34)c(N3CCOCC3)cc2O1	6
CC1(C)Cc2cc(NC(=O)c3cnn4cccnc34)c(OC[C@@H]3[C@H]4CN(CC(F)F)C[C@@H]34)cc2O1	14

[P] CC1(C)Cc2cc(NC(=O)c3cnn4cccnc34)c(N3CC4COCC(C3)C4O)cc2O1 (stereo not shown)
[Q] CC1(C#N)CCN(c2cc3c(cc2NC(=O)c2cnn4cccnc24)CN(C[C@@H](F)C(C)(C)O)C3=O)CC1
[R] C[C@]1(CO)Cc2cc(NC(=O)c3cnn4cccnc34)c(N3CCOCC3)c(Cl)c2O1
[S] Cc1cnc2c(C(=O)Nc3cc4c(cc3N3CCOCC3)OC(C)(C(F)F)C4)cnn2c1 (stereo not shown)
[T] CC1(C)Cc2cc(NC(=O)c3cnn4ccc(C[C@@H]5CNC(=O)C5)nc34)c(C3CC3)cc2O1
Input: Sort low-to-high on Ki, please. List each label, following the requested order.
Output: Q, S, R, T, P
(Q: 3.1 nM, S: 13 nM, R: 34 nM, T: 150 nM, P: 810 nM)

* * *

EXPERIMENTAL SYSTEM: human IRAK4 (Homo sapiens (Human), UniProt Q9NWZ3)
Sequence (Q9NWZ3 whole entry): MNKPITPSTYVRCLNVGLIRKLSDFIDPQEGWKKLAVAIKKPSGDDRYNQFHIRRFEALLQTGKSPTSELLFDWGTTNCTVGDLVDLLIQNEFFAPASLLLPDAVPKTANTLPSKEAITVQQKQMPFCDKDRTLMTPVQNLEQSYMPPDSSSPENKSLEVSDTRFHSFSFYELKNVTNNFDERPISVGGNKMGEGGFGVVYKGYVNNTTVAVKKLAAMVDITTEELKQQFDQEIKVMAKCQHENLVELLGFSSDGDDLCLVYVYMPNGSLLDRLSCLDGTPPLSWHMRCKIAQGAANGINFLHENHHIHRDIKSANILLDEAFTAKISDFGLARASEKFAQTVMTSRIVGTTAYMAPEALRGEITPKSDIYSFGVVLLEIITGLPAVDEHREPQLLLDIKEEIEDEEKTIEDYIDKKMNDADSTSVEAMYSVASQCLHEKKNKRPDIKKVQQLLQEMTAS
EXPERIMENT NOTES: IRAK4 kinase inhibition, Transcreener fluorescence polarization ADP assay
CONDITION LABEL: recombinant full-length His6-IRAK4; 125 uM ATP; 90 min; Ki computed using ATP Km 642 uM
OBSERVED PROPERTY: Ki (nM)

Sample records with Ki:
CC1(C)Cc2cc(NC(=O)c3cnn4cc(C(F)(F)F)cnc34)c(N3CCOCC3)cc2O1	27
Cc1cnc2c(C(=O)Nc3cc4c(cc3N3CCC(C(C)(C)O)CC3)O[C@@](C)(CO)C4)cnn2c1	3.8
CC(C)N1CCN(c2cc3c(cc2NC(=O)c2cnn4cccnc24)CC(C)(C)O3)CC1	43
CNC(=O)c1cnc2c(C(=O)Nc3cc4c(cc3N3CCOCC3)C(=O)N(C[C@@H](F)C(C)(C)O)C4)cnn2c1	9.1
CC(C)(O)[C@H](F)CN1Cc2cc(NC(=O)c3cnn4cccnc34)ccc2C1=O	84

[a] C[C@@]1(CO)Cc2cc(NC(=O)c3cnn4cccnc34)c(OC(F)(F)F)cc2O1
[b] CC1(C)Cc2cc(NC(=O)c3cnn4cccnc34)c(OCC(F)(F)F)cc2O1
Input: Lower value for measured Ki? Options: a , b Pick one; state its label.
Output: a
(a: 16 nM, b: 28 nM)

* * *

EXPERIMENTAL SYSTEM: UniProt Q9NWZ3
EXPERIMENT NOTES: IRAK4 kinase inhibition, Transcreener fluorescence polarization ADP assay
CONDITION LABEL: recombinant full-length His6-IRAK4; 125 uM ATP; 90 min; Ki computed using ATP Km 642 uM
OBSERVED PROPERTY: Ki (nM)

CN1CC[C@@]2(Cc3cc(NC(=O)c4cnn5cccnc45)c(N4CCOCC4)cc3O2)C1	31
C[C@@]1(CO)Cc2cc(NC(=O)c3cnn4cccnc34)c(OCC(F)F)cc2O1	23

[A] CC1(C)Cc2cc(NC(=O)c3cnn4cccnc34)c(N3CC4(CCC4(F)F)C3)cc2O1
[B] CC1(C)Cc2cc(NC(=O)c3cnn4cccnc34)c(OCc3cccnc3)cc2O1
Input: Problem: Given the entries A and B , determine which has the lower reported Ki. Respond with the label that goes with your answer.
Output: B
(B: 23 nM, A: 730 nM)

* * *

EXPERIMENTAL SYSTEM: human IRAK4 (Homo sapiens (Human))
EXPERIMENT NOTES: IRAK4 kinase inhibition, Transcreener fluorescence polarization ADP assay
CONDITION LABEL: recombinant full-length His6-IRAK4; 125 uM ATP; 90 min; Ki computed using ATP Km 642 uM
pKi: −log10 of the molar value.
OBSERVED PROPERTY: pKi

CC1(C)Cc2cc(NC(=O)c3cnn4cccnc34)c(N3C[C@H]4CCC(F)(F)[C@H]4C3)cc2O1	7.66

[P] C[C@]1(CCO)Cc2cc(NC(=O)c3cnn4cccnc34)c(N3CCOCC3)cc2O1
[Q] CC(C)(O)[C@@]1(C)Cc2cc(NC(=O)c3cnn4cccnc34)c(O[C@H]3CC[C@@H](O)CC3)cc2O1
Input: Lab log: flag the item ( P or Q ) with the smaller pKi figure. Your choice should be expressed through its label.
Output: Q

* * *

EXPERIMENTAL SYSTEM: UniProt:Q9NWZ3
EXPERIMENT NOTES: IRAK4 kinase inhibition, Transcreener fluorescence polarization ADP assay
Type: biochemical
CONDITION LABEL: recombinant full-length His6-IRAK4; 125 uM ATP; 90 min; Ki computed using ATP Km 642 uM
Experimental: Compounds were assayed for inhibition of human IRAK4 and IRAK1 catalytic activity using recombinant enzyme produced from insect cells. Full-length IRAK4 protein, carrying an N-terminal His6-Tag, was obtained from Life Technologies (Carlsbad, Calif., USA). The IRAK1 construct was produced internally and was comprised of IRAK1 residues Arg194 to Ser712, preceded by an NH2-terminal His6 tag and the coding sequence for glutathione-S-transferase.
OBSERVED PROPERTY: Ki (nM)

As a guide, the following entries are already answered.
CC1(C)Cc2cc(NC(=O)c3cnn4cccnc34)c(N3CCOCC3)c(C#N)c2O1	740
CC1(C)Cc2cc(NC(=O)c3cnn4cccnc34)c(N3CC4CC(F)(F)C4C3)cc2O1 (centres unmarked)	170
C[C@]1(C2CC2)Cc2cc(NC(=O)c3cnn4cccnc34)c(N3CCN(CC(F)F)CC3)cc2O1	4.4
C[C@H](CN1Cc2cc(NC(=O)c3cnn4cccnc34)c(N3CCOCC3)cc2C1=O)N1CCOCC1	12
CN(C)C(=O)CN1CCN(c2cc3c(cc2NC(=O)c2cnn4cccnc24)CC(C)(C)O3)CC1	34

[a] CC(C)(O)[C@H]1CC[C@H](N2Cc3cc(NC(=O)c4cnn5cccnc45)c(N4CCOCC4)cc3C2=O)CC1
[b] CC1(C)Cc2cc(NC(=O)c3cnn4cccnc34)c(C3CCN(CCO)CC3)cc2O1
Input: Quick one: lower Ki, a or b ? In your reply, give the label of the chosen option.
Output: a
(a: 2.9 nM, b: 410 nM)

* * *

EXPERIMENTAL SYSTEM: human IRAK4 (Homo sapiens (Human))
EXPERIMENT NOTES: IRAK4 kinase inhibition, Transcreener fluorescence polarization ADP assay
CONDITION LABEL: recombinant full-length His6-IRAK4; 125 uM ATP; 90 min; Ki computed using ATP Km 642 uM
Procedure: Compounds were assayed for inhibition of human IRAK4 and IRAK1 catalytic activity using recombinant enzyme produced from insect cells. Full-length IRAK4 protein, carrying an N-terminal His6-Tag, was obtained from Life Technologies (Carlsbad, Calif., USA). The IRAK1 construct was produced internally and was comprised of IRAK1 residues Arg194 to Ser712, preceded by an NH2-terminal His6 tag and the coding sequence for glutathione-S-transferase.
pKi: −log10 of the molar value.
OBSERVED PROPERTY: pKi

Check out these entries, answers already filled in.
CC1(C)Cc2cc(NC(=O)c3cnn4cccnc34)c(N3CCC4(CC3)CNC4=O)cc2O1	8.32
CC1(C)Cc2cc(NC(=O)c3cnn4cccnc34)c(N3Cc4cccnc4C3)cc2O1	8.26
CC1(C)Cc2cc(NC(=O)c3cnn4cccnc34)c(N3CCNCC3)cc2O1	7.89
CC(C)(O)[C@H](F)CN1Cc2cc(NC(=O)c3cnn4cccnc34)c(N3CCC([C@H](O)C(F)(F)F)CC3)cc2C1=O (single isomer, unassigned)	8.70
O=C(Nc1cc2c(cc1N1CCOCC1)OC1(CCNCC1)C2)c1cnn2cccnc12	7.70

[P] CC(C)(O)[C@H](F)CN1Cc2cc(NC(=O)c3cnn4cccnc34)c(N3CCC([C@@H](O)C(F)F)CC3)cc2C1=O (single isomer, unassigned)
[Q] C[C@]1(CO)CCc2cc(NC(=O)c3cnn4cccnc34)c(N3CCOCC3)cc2O1 (single isomer, unassigned) [Example 432]
Input: Please indicate which entry, P or Q , has the lower recorded pKi value. Output the label that corresponds to your choice.
Output: Q
(Q: 8.00, P: 8.70)

[a] CC1(C)Cc2cc(NC(=O)c3cnn4cccnc34)c(N3CCC4(CCOC4)CC3)cc2O1
[b] Cn1cc(COc2cc3c(cc2NC(=O)c2cnn4cccnc24)CC(C)(C)O3)cn1
[c] C[C@]1(CO)Cc2cc(NC(=O)c3cnn4cccnc34)c(N3CC[C@H](F)C3)cc2O1
[d] C[C@]1(O)COc2cc(N3CCC([C@@](C)(O)C(F)(F)F)CC3)c(NC(=O)c3cnn4cccnc34)cc2C1 (single isomer, unassigned)
[e] CC(C)(O)[C@H](F)CN1Cc2cc(NC(=O)c3cnn4cccnc34)c(N3CCC(C#N)CC3)cc2C1=O
Input: List from greatest to least pKi. Returns: the labels listed in the requested order.
Output: e, a, b, c, d
(e: 8.85, a: 8.62, b: 8.15, c: 7.22, d: 6.96)

[a] CC1(C)Cc2cc(NC(=O)c3cnn4cccnc34)c(O[C@@H]3CCN(CC(N)=O)C3)cc2O1
[b] C[C@]1(O)CCCN(c2cc3c(cc2NC(=O)c2cnn4cccnc24)C[C@](C)(CO)O3)CC1
[c] CC1(C)Cc2cc(NC(=O)c3cnn4cccnc34)c(N3CCCNCC3)cc2O1
[d] Cc1cnc2c(C(=O)Nc3cc4c(cc3N3CCN(CC(F)F)CC3)C(=O)N(C[C@@H](F)C(C)(C)O)C4)cnn2c1
Input: Arrange these compounds by their pKi, starting with the largest number. Answer by naming the labels in the order asked.
Output: d, a, b, c
(d: 8.70, a: 8.48, b: 8.22, c: 7.74)
